# TARGET SYSTEM: NF-kB p50 homodimer (UniProt P19838 P19838:1-433)
# Sequence (P19838 1-433, one chain of several): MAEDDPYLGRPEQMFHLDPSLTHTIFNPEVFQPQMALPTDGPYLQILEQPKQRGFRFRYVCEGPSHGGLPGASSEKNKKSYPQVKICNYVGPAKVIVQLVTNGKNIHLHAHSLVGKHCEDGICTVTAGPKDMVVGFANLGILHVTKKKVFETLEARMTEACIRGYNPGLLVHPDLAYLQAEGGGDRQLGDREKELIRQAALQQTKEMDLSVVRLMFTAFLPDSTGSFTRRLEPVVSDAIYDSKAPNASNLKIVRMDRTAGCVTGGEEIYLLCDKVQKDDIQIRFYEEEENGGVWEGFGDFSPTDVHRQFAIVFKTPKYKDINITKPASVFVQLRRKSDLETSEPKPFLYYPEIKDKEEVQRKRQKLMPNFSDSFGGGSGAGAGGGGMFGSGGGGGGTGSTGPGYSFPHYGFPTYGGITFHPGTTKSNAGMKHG
# ASSAY TEXT: EMSA; stated as sub-nM
# EXPERIMENTAL PARAMETERS: chain copies: 2 (homodimer, stated)
pKd: −log10 of the molar value.
MEASURED METRIC: pKd

Inquiry: Consider the binder XBY-6 (dsDNA, 6 phosphorodithioate (S2) linkages: 5'-…2TS2CCAC-3' / 3'-GGS2TCCS2TCS2TAAGGS2TG-5') DNA 1: CCAGGAGATTCCAC DNA 2: GTGGAATCTCCTGG and give its measured pKd.
Reply text: > 9.00

Values compiled from patent US20060121489.
